System: Staphylococcus aureus
Test: Antibacterial activity against Staphylococcus aureus 29213 by microdilution method
Type: functional
Result Type: MIC

MIC measured on CN(Cc1cc2ccccc2n1C)C(=O)/C=C/c1cnc2c(c1)CCC(=O)N2 = ≤ 0.016 µg/mL

Notebook: Cc1c(CN(C)C(=O)/C=C/c2cnc3c(c2)CC2(CCN(C)CC2)C(=O)N3)oc2ccccc12 , MIC read as ≤ 0.016 µg/mL

Cc1c(CN(C)C(=O)/C=C/c2cnc3c(c2)CN(CCN2CCOCC2)C(=O)N3)sc2ccccc12 yielded MIC of ≤ 0.063 µg/mL

MIC for Cc1c(CN(C)C(=O)/C=C/c2cnc3c(c2)CC2(CCN(C)CC2)C(=O)N3)sc2ccc(F)cc12 is ≤ 0.016 µg/mL

Notebook: Cc1c(CN(C)C(=O)/C=C/c2cnc3c(c2)CC2(CCN(C)CC2)C(=O)N3)sc2ccccc12 , MIC read as ≤ 0.016 µg/mL

For this molecule ( Cc1c(CN(C)C(=O)/C=C/c2cnc3c(c2)CC2(CCNCC2)C(=O)N3)sc2ccccc12 ), measured MIC is ≤ 0.016 µg/mL
